experiment: Pharmacokinetic analysis and plasma drug concentrations (LC-MS/MS); assay type: in vivo, APOE*3Leiden.CETP mice; conditions: APOE*3Leiden.CETP, mouse, plasma; single oral gavage, 50 mg/kg; read-out: AUC0–24
Attribute measured: AUC(0-t) (µg·h/mL)
The reply should contain only the number, in µg·h/mL.

Lookup: Could you tell me which AUC(0-t) is on file for "Cc1cn(-c2cc(NC(=O)c3ccc(C)c(Nc4nccc(-c5cccnc5)n4)c3)cc(C(F)(F)F)c2)cn1" ?
Found: 117

###

assay: Pharmacokinetic analysis and plasma drug concentrations (LC-MS/MS); assay type: in vivo, APOE*3Leiden.CETP mice; conditions: APOE*3Leiden.CETP, mouse, plasma, po; repeated dose, QD, 30 mg/kg, after 16 weeks
Attribute measured: Tmax (h)
The reply should contain only the number, in h.

Lookup: Could you tell me which Tmax is on file for "Cc1cn(-c2cc(NC(=O)c3ccc(C)c(Nc4nccc(-c5cccnc5)n4)c3)cc(C(F)(F)F)c2)cn1" ?
Found: 3.17
